All figures here come from ChEMBL document CHEMBL1130277.

# System name: Aryl hydrocarbon receptor (Homo sapiens, UniProt P35869)
# Sequence (P35869 whole entry): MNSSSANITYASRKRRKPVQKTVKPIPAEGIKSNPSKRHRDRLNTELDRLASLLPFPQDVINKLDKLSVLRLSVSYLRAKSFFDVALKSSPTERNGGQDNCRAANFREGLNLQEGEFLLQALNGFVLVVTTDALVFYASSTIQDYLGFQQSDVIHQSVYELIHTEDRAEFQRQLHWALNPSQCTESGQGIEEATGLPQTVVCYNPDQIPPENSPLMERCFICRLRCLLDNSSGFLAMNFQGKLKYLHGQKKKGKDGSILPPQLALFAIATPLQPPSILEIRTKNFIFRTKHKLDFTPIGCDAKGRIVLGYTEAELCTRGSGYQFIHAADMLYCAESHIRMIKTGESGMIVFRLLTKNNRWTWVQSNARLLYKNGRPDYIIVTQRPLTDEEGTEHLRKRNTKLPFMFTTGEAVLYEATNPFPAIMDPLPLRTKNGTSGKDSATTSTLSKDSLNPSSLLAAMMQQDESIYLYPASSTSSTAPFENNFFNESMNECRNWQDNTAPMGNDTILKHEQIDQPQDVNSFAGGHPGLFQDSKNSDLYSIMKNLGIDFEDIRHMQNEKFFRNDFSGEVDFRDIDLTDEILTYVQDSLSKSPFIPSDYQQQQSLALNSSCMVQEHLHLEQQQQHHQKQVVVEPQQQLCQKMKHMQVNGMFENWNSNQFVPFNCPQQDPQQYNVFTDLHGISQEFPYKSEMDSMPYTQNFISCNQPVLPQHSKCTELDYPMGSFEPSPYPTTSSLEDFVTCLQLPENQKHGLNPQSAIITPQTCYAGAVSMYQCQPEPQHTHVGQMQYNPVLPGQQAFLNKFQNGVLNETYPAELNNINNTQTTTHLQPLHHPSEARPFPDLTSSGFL
pEC50: −log10 of the molar value.
Threshold rule: pEC50 greater than or equal to 6 is true (1); below that, false (0).

Form field: pEC50 at least 6? Entry: `Clc1c(Cl)c(Cl)c2c(c1Cl)Oc1c(Cl)c(Cl)c(Cl)c(Cl)c1O2`
false (0)

What about this compound? `Clc1cc(Cl)c2oc3cc(Cl)c(Cl)cc3c2c1`
true (1)

How about `Clc1cc2oc3c(Cl)c(Cl)c(Cl)c(Cl)c3c2cc1Cl` ?
true (1)

Here is the next compound: `Clc1ccc2oc3c(Cl)c(Cl)c(Cl)cc3c2c1`
true (1)

And the next one, `Clc1cccc2c1Oc1ccccc1O2` ?
false (0)

Further, for `Clc1cc(Cl)c2oc3c(Cl)cc(Cl)c(Cl)c3c2c1` ?
false (0)

`Brc1ccc2c(c1)Oc1cc(Br)c(Br)cc1O2` ?
true (1)

Again, but for `Clc1cc2c(cc1Cl)Oc1c(Cl)cccc1O2`
true (1)

Item: `Brc1cc2c(cc1Br)Oc1c(Br)c(Br)cc(Br)c1O2`
true (1)

What about `Clc1cc(Cl)c2c(c1)oc1ccc(Cl)cc12` ?
false (0)

# iterate: `Clc1cc(-c2ccccc2)c(Cl)c(Cl)c1Cl`
false (0)

----------
Here's a batch of compounds along with measured pIC50 for GABA-A receptor; anion channel.
Answers are plain numbers.

Worked set:
Which value of pIC50 has been reported for `Clc1cccc2[nH]c3c4c5ccccc5nc-4c[nH]c3c12` in the records?
6.15

Check `Cc1ccc2c(c1)[nH]c1c3c4ccccc4nc-3c[nH]c12` too.
8.1

Item: `CCCCOc1cc2c(cn1)[nH]c1ccccc12`
7.01

Ok, now `COc1cccc2[nH]c3c4c5ccccc5nc-4c[nH]c3c12`
6.6

Same question, `CC(C)(C)OC(=O)c1cc2c3ccccc3nc-2c[nH]1` this time
8

Next item in the queue.
// returns reported pIC50 for input `CC(C)(C)COC(=O)c1cc2c3ccccc3nc-2c[nH]1`
6.12

----------
The following molecules each carry a recorded EC50 for Aryl hydrocarbon receptor (Homo sapiens, UniProt P35869).
Numbers only, in nM.

Field request: EC50 | item: `Clc1cc2c(cc1Br)Oc1cc(Br)c(Cl)cc1O2`
0.447

Also `Clc1ccc(-c2ccc(Cl)c(Cl)c2)cc1Cl` , if possible.
710

Then this molecule: `Clc1cc(-c2ccc(Cl)c(Cl)c2Cl)cc(Cl)c1Cl`
5000

Please answer likewise for `Clc1cc(Cl)c(-c2cc(Cl)c(Cl)c(Cl)c2)cc1Cl`
16000

Thanks! And `Clc1ccc2c(c1)Oc1cc(Cl)c(Cl)cc1O2` ?
71

And what about the molecule `Clc1cc2oc3cc(Cl)c(Cl)cc3c2cc1Cl` ?
41

What do you have for `Clc1ccc(-c2cc(Cl)c(Cl)c(Cl)c2)cc1` ?
28000

One more molecule: `Clc1ccc(-c2ccc(Cl)c(Cl)c2Cl)cc1Cl`
4270

Batch lookup, EC50 per entry.
1. Brc1cc2c(cc1Br)Oc1c(cc(Br)c(Br)c1Br)O2
2. Clc1ccc(-c2cc(Cl)c(Cl)c(Cl)c2Cl)cc1
3. Clc1cc2c(oc3cc(Cl)c(Cl)c(Cl)c32)c(Cl)c1Cl
4. Clc1cc(Cl)c2c(c1)Oc1cc(Cl)c(Cl)cc1O2
5. Brc1cc(Br)c2c(c1)Oc1cc(Br)c(Br)cc1O2

[6.61, 4100, 270, 794, 2]

----------
A short record of pIC50 observed with GABA-A receptor; anion channel follows.
One number for each entry.

In the examples that follow, each entry is paired with its recorded pIC50.
Fill in: pIC50 of `CCOC(=O)c1cc2c(cn1)sc1ccccc12` is ___
5.77

Next compound: `COc1cc2c(cn1)[nH]c1ccccc12`
6.91

Look at each compound and report its pIC50.
1. CCCCc1cc2c(cn1)[nH]c1ccccc12
2. Cc1cccc2[nH]c3c4c5ccccc5nc-4c[nH]c3c12
3. CC(C)(C)COc1cc2c3ccccc3nc-2c[nH]1
4. CC(C)COc1cc2c(cn1)[nH]c1ccccc12
5. CCOC(=O)c1cc2c(cn1)oc1ccccc12

1. 6.64
2. 5.16
3. 7.02
4. 7.03
5. 5.07

----------
# System name: Aryl hydrocarbon receptor (Homo sapiens)
Value type: log10(EC50) (log10 of the value in µM)
Scale: log10; quantity: EC50; unit before log: µM

Some solved cases for reference:
Using the record for `Clc1ccc2c(oc3c(Cl)cc(Cl)c(Cl)c32)c1Cl` , report its log10(EC50).
-1.17

Check `Clc1ccc2c(c1)Oc1c(Cl)c(Cl)c(Cl)c(Cl)c1O2` too.
0.81

Also check `Clc1cc2oc3c(Cl)cc(Cl)c(Cl)c3c2cc1Cl`
0.11

Field entry: `Clc1cc(Cl)c2c(c1Cl)Oc1ccccc1O2`
1.11

Same lookup for `Brc1ccc2c(c1)Oc1ccc(Br)cc1O2` , please.
-1.81

Moving on to `Clc1cc2c(cc1Cl)Oc1c(Cl)c(Cl)c(Cl)c(Cl)c1O2`
-0.55

Also check `Clc1cc2oc3cc(Cl)c(Cl)c(Cl)c3c2cc1Cl`
-1.13

Next up: `Clc1cc(Cl)c2c(c1)oc1c(Cl)cc(Cl)c(Cl)c12`
1.30

Follow-up entry: `Clc1cc(Cl)c2c(c1)oc1c(Cl)cccc12`
0.64

And the next one, `Clc1cc2c(cc1Cl)Oc1c(ccc(Cl)c1Cl)O2` ?
-0.80

Please state, for each entry, its recorded log10(EC50).
1. Brc1cc(Br)c2c(c1)Oc1cc(Br)cc(Br)c1O2
2. Clc1ccc(-c2cc(Cl)c(Cl)c(Cl)c2Cl)cc1Cl

-1.03
0.85

// batch mode: one log10(EC50) value per listed entry
1. Clc1cc(Cl)c2c(c1)oc1cc(Cl)c(Cl)c(Cl)c12
2. Clc1cc2c(cc1Cl)Oc1cc(Br)c(Cl)cc1O2
3. Clc1cccc2c1oc1ccccc12

-0.40
-1.94
3.00

----------
Acetylcholinesterase (Homo sapiens): reported log10(IC50) for various compounds.
Sequence (P22303 whole entry): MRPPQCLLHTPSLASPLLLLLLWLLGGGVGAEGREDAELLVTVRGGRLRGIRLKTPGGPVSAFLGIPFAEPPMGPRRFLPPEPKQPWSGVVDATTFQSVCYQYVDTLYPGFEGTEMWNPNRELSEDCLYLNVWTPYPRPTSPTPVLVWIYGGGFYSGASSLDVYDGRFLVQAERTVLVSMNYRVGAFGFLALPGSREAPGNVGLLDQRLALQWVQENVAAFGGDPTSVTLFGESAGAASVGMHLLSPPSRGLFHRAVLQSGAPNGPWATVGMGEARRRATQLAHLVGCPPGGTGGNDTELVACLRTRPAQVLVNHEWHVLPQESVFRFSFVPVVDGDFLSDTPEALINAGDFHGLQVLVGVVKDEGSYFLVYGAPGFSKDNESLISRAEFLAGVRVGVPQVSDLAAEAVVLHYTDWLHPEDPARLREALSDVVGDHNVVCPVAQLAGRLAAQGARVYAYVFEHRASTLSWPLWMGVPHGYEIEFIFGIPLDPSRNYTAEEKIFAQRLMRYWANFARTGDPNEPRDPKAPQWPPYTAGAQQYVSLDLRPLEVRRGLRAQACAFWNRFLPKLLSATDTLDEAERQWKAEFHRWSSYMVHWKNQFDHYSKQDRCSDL
// units: µM (pre-log); metric: IC50; scale: log10

Form field - read-out: log10(IC50); system: Acetylcholinesterase (Homo sapiens); submitted item: `CCC(=O)Oc1cccc([N+](C)(C)C)c1C`
2.88

Dear colleague, could you send me log10(IC50) for each of the items below? Thanks.
1. C[C@@]1(O)C[N+](C)(C)CCO1
2. C[N+](C)(C)c1cccc([N+](=O)[O-])c1

[3.24, 2.80]

Fill in log10(IC50) for each of the 8 compounds listed.
1. COc1cccc([N+](C)(C)C)c1C
2. C=CCC[N+](C)(C)C
3. CCC(=O)Oc1ccc(C)c([N+](C)(C)C)c1
4. C[N+](C)(C)c1cccc(N)c1
5. C[N+](C)(C)CCCCCBr
6. COc1cc([N+](C)(C)C)ccc1C
7. C[N+]1(C)CCO[C@H](O)C1
8. CC(=O)Oc1cc([N+](C)(C)C)ccc1C

[2.38, 2.93, 1.84, 2.28, 2.73, 2.09, 3.25, -0.18]

----------
Recorded log10 of EC50 values (Aryl hydrocarbon receptor (Homo sapiens)) are given below.
// stored as log10 of EC50 expressed in nM

Which value of log10 of EC50 has been reported for `Clc1ccc(-c2cc(Cl)c(Cl)cc2Cl)cc1Cl` in the records?
3.96

Also `Clc1cc2c(oc3c(Cl)cccc32)c(Cl)c1Cl` ?
2.54

Try this compound next: `Clc1cc(Cl)c(-c2cc(Cl)c(Cl)c(Cl)c2)c(Cl)c1`
5.00

How about this compound: `Clc1cc2oc3c(Cl)c(Cl)c(Cl)cc3c2cc1Cl`
1.18

Also need `Clc1ccc2c(c1)Oc1cc(Cl)ccc1O2` , thanks.
3.51

Item: `Clc1cc2oc3c(Cl)c(Cl)cc(Cl)c3c2cc1Cl`
2.30

Consider next the compound `Brc1cc2c(cc1Br)Oc1cc(Br)c(Br)cc1O2` in the same way.
0.18

Next entry: `Clc1ccc2c(c1)oc1c(Cl)c(Cl)c(Cl)cc12`
1.40

More entries:
Recorded log10 of EC50 of `Clc1cc(Cl)c2c(c1)oc1c(Cl)c(Cl)c(Cl)cc12` , please.
2.30

----------
pIC50 data for GABA-A receptor; anion channel follow.
Numbers only.

Form: Entry = `Cn1c2ccccc2c2[nH]cc3nc4ccccc4c-3c21` | System = GABA-A receptor; anion channel | pIC50 = ____
6.8

Same question, `COc1ccc(-n2nc3c4ccccc4[nH]cc-3c2=O)cc1` this time
10

Also, `c1ccc(COc2cc3c4ccccc4nc-3c[nH]2)cc1` please.
6

Can you check `CC(C)CCOc1cc2c3ccccc3nc-2c[nH]1` next?
6.37

O=C1C2C=Nc3ccccc3C2=NN1c1ccccc1 (centres undefined) [CGS-8216] ?
9.4

How about `O=[N+]([O-])c1cc2c3ccccc3nc-2c[nH]1` ?
6.9

Field: pIC50. Fill in for each record below.
1. CCOC(=O)c1cc2c(cn1)Cc1ccccc1-2
2. c1ccc2c(c1)[nH]c1c2ccc2[nH]c3ccccc3c21
3. CC(C)(C)C(=O)c1cc2c3ccccc3nc-2c[nH]1

[6.17, 5.71, 6.45]
